Exercise: state measured pEC50 for each of the compounds provided.
Test system: HCV genotype 1a (H77 strain) replicon in HUH-7 cells
ASSAY_METHOD_TEXT: HCV replicon luciferase reporter assay, genotype 1a
Assay type: cell-based
CONDITIONS_USED: Hepatitis C virus, Huh-7, 72 h, HCV genotype 1a replicon luciferase, 3 days incubation, range class, read-out: LE_1a (EC50, range)
pEC50: −log10 of the molar value.

SMILES_ENTRY | pEC50
COc1ccc2c(O[C@@H]3C[C@H]4C(=O)N[C@]5(C(=O)NS(=O)(=O)C6CC6)C[C@H]5/C=C\CC[C@H](C)C[C@@H](C)[C@H](NC(=O)O[C@@H]5C[C@@H]6C[C@@H]6C5)C(=O)N4C3)nc(-c3ccc(OC(C)C)nc3)cc2c1 | > 8.26

Parameters: items (list). Returns: pEC50 for each item.
1. COc1ccc2c(O[C@@H]3C[C@H]4C(=O)N[C@]5(C(=O)NS(=O)(=O)C6CC6)C[C@H]5/C=C\CC[C@@H](C)C[C@@H](C)[C@H](NC(=O)O[C@@H]5C[C@@H]6C[C@@H]6C5)C(=O)N4C3)nc(-c3ccc(N4CCOCC4)cc3)cc2c1
2. COc1ccc2c(O[C@@H]3C[C@H]4C(=O)N[C@]5(C(=O)NS(=O)(=O)C6(C)CC6)C[C@H]5/C=C\CC[C@H](C)C[C@@H](C)[C@H](NC(=O)O[C@@H]5C[C@@H]6C[C@@H]6C5)C(=O)N4C3)nc(-c3ccc(OC(C)C)nc3)cc2c1
3. [2H]C([2H])([2H])C(C)(OC(=O)N[C@@H]1C(=O)N2C[C@H](Oc3nccc4cc(OC)ccc34)C[C@H]2C(=O)N[C@]2(C(=O)NS(=O)(=O)C3(C)CC3)C[C@H]2/C=C\CC[C@@H](C)C[C@H]1C)C([2H])([2H])[2H]

A:
> 8.26
6.99 to 8.32
> 8.26
